Hello, the source for this data is patent US8193191B2, in case you need it.

Biological target: rat GPR14 (U-II receptor) (Rattus norvegicus, UniProt P49684)
Construct: expressed in transfected cells
Experiment: Rat UII Calcium Mobilization FLIPR Assay
Assay type: cell-based
Details: CHO, 5 min, 10 μM compound; agonist-induced Ca2+ mobilization (FLIPR), CHO cells with rat UII receptor; read-out: % I @ 10
propertyName: inhibition at 10 µM (%)

(1) COc1ccc(C(CN(C)C)N2C(=O)c3cccc(N4CCN([C@H](C)c5ccccc5)CC4)c3C2=O)cc1OC (some centres unmarked) [Cpd 63]
(2) COc1cc(CN2C(=O)c3cccc(N4CCN(Cc5ccccc5)CC4)c3C2=O)ccn1 [Cpd 58]
(3) COc1ccc(CN2C(=O)c3cccc(N4C[C@@H](C)N(Cc5ccccc5)[C@@H](C)C4)c3C2=O)cc1OC [Cpd 42]
-- ask Quick favor: sort the compounds up above by inhibition at 10 µM, largest first. Would you mind listing the labels in the order requested?
-- reply 1, 3, 2
(1: 102%, 3: 55%, 2: 25%)

(I) COc1ccc(CN2C(=O)c3cccc(C4CCN(Cc5ccccc5)CC4)c3C2=O)cc1OC [Cpd 76]
(II) COc1ccc(CN2C(=O)c3cccc(OCCN(C)Cc4ccccc4)c3C2=O)cc1OC [Cpd 53]
-- ask Choose between I and II : whose measured inhibition at 10 µM value is numerically larger? Returns: label corresponding to the selected item.
-- reply I
(I: 98%, II: 22%)

(A) CCOc1ccc(CN2C(=O)c3cccc(N4CCN([C@H](C)c5ccccc5)CC4)c3C2=O)cc1OC [Cpd 18]
(B) COc1cc(CN2C(=O)c3cccc(N4CCN(C(C)C)CC4)c3C2=O)cc(OC)c1OC [Cpd 52]
-- ask Choose between A and B : whose measured inhibition at 10 µM value is numerically larger? Returns: label corresponding to the selected item.
-- reply A

---

Molecular target: Human UII receptor, 6D9 human rhabdomyosarcoma cells (Homo sapiens, UniProt Q9UKP6)
Construct: 6D9: isolated by dilution subcloning of RMS13 cells, ATCC® Number: CRL-2061
Sequence (Q9UKP6 1-389): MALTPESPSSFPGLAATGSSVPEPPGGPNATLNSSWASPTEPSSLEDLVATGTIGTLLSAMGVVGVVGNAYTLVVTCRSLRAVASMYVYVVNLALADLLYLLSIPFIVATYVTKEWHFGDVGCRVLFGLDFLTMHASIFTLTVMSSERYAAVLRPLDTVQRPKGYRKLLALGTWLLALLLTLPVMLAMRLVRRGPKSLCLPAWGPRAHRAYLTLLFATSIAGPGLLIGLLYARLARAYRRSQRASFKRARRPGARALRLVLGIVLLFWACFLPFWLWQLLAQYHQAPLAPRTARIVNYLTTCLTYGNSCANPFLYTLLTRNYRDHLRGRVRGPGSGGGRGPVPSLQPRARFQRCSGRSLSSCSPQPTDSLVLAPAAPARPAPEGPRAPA
Assay: Human UII Calcium Mobilization Assay
Conditions: average value, FLIPR TETRA, read-out: Human UII Ca^+ Mobilization Average IC50
pIC50: −log10 of the molar value.
propertyName: pIC50

// worked examples, pIC50 included
molecule: COc1ccc(C(CCNC(=O)Cc2ccncc2)N2C(=O)c3cccc(N4CCN([C@H](C)c5ccccc5)CC4)c3C2=O)cc1OC (stereo partly shown)
pIC50: 6.23

molecule: COc1ccc([C@@H](CCCNC(=O)c2c(C)n[nH]c2C)N2C(=O)c3cccc(N4CCN([C@H](C)c5ccccc5)CC4)c3C2=O)cc1OC
pIC50: 7.43

(1) CCN1CCN(c2cccc3c2C(=O)N(C(c2cccc(NCc4ccccc4)c2)c2ccc(OC)c(OC)c2)C3=O)CC1 (stereo not shown)
(2) COc1ccc(C(CNC(=O)Cc2ccncc2)N2C(=O)c3cccc(N4CCN([C@H](C)c5ccccc5)CC4)c3C2=O)cc1OC (stereo partly shown)
-- ask Given the listed items, does 1 or 2 have the lesser reported pIC50? Returns: label corresponding to the selected item.
-- reply 1

---

Biological target: endogenous human UII receptor (Homo sapiens, UniProt Q9UKP6)
Experiment: Human Radioligand Binding Assay ((^125I)-U-II binding to human skeletal muscle myoblasts)
Conditions: read-out: Human UII Average Binding Ki; average value; (^125I)-U-II binding to human skeletal muscle myoblasts (HSMM), 25° C., 3 h
propertyName: pKi
Worth noting: pKi values are minus log10 of concentrations stated in mol/L.

compoundStructureString: COc1ccc([C@@H](CCCNS(=O)(=O)c2cccs2)N2C(=O)c3cccc(N4CCN(C)CC4)c3C2=O)cc1OC
pKi: 7.23
--
compoundStructureString: COc1ccc([C@@H](CCCNC(=O)c2cnoc2C)N2C(=O)c3cccc(N4CCN([C@H](C)c5ccccc5)CC4)c3C2=O)cc1OC
pKi: 6.89
--
compoundStructureString: COc1ccc([C@@H](CCCNS(=O)(=O)c2cccs2)N2C(=O)c3cccc(N4CCNCC4)c3C2=O)cc1OC
pKi: 6.82
--
compoundStructureString: COc1ccc([C@@H](CCCNS(=O)(=O)c2cccs2)N2C(=O)c3cccc(N4CCN(C(C)C)CC4)c3C2=O)cc1OC
pKi: 7.35
--
compoundStructureString: COc1ccc([C@@H](CCCNS(=O)(=O)c2cnoc2C)N2C(=O)c3cccc(N4CCN([C@H](C)c5ccccc5)CC4)c3C2=O)cc1OC
pKi: 7.49
--
compoundStructureString: COc1ccc([C@@H](CCCNS(=O)(=O)c2c(C)n[nH]c2C)N2C(=O)c3cccc(N4CCN([C@H](C)c5ccccc5)CC4)c3C2=O)cc1OC
pKi: 7.89

-- ask Field request: pKi | item: COc1ccc([C@H](CCCNS(=O)(=O)c2cccs2)N2C(=O)c3cccc(N4CCN([C@H](C)c5ccccc5)CC4)c3C2=O)cc1OC
-- reply 6.92

-- ask What do we get for CCN1CCN(c2cccc3c2C(=O)N([C@H](CCCNS(=O)(=O)c2cn(C)c(C)n2)c2ccc(OC)c(OC)c2)C3=O)CC1 ?
-- reply 7.01

-- ask What do we get for COc1ccc([C@@H](CCCNS(=O)(=O)c2cccs2)N2C(=O)c3cccc(N4CCN([C@H](C)c5ccccc5)CC4)c3C2=O)cc1OC ?
-- reply 7.31

-- ask What do we get for CCN1CCN(c2cccc3c2C(=O)N([C@H](CCCNS(=O)(=O)c2cccs2)c2ccc(OC)c(OC)c2)C3=O)CC1 ?
-- reply 7.46

-- ask What do we get for COc1ccc([C@@H](CCCNS(=O)(=O)c2cn(C)c(C)n2)N2C(=O)c3cccc(N4CCN([C@H](C)c5ccccc5)CC4)c3C2=O)cc1OC ?
-- reply 7.80

-- ask What do we get for COc1ccc([C@@H](CCCNC(=O)c2c(C)n[nH]c2C)N2C(=O)c3cccc(N4CCN([C@H](C)c5ccccc5)CC4)c3C2=O)cc1OC ?
-- reply 7.06

---

Molecular target: rat GPR14 (U-II receptor) (Rattus norvegicus, UniProt P49684)
Construct: expressed in transfected cells
Assay: Rat UII Calcium Mobilization FLIPR Assay
Format: cell-based
Details: average value for the compound tested; read-out: Rat UII FLIPR Average IC50
pIC50: −log10 of the molar value.
propertyName: pIC50

// worked examples, pIC50 included
compound: COc1ccc([C@@H](CCCNC(=O)c2cc(C)c(C)o2)N2C(=O)c3cccc(N4CCN([C@H](C)c5ccccc5)CC4)c3C2=O)cc1OC
targetOrTestSystem: rat GPR14 (U-II receptor) (Rattus norvegicus, UniProt P49684)
pIC50: 7.46
--
compound: COc1ccc([C@@H](CCCNC(=O)c2c(C)nn(C)c2C)N2C(=O)c3cccc(N4CCN([C@H](C)c5ccccc5)CC4)c3C2=O)cc1OC
targetOrTestSystem: rat GPR14 (U-II receptor) (Rattus norvegicus, UniProt P49684)
pIC50: 7.82

(I) CCN1CCN(c2cccc3c2C(=O)N(C(c2cccc(NS(=O)(=O)O)c2)c2ccc(OC)c(OC)c2)C3=O)CC1 (stereo not drawn)
(II) COc1ccc([C@@H](CCNC(=O)c2csc(C)n2)N2C(=O)c3cccc(N4CCN([C@H](C)c5ccccc5)CC4)c3C2=O)cc1OC
(III) COc1ccc(C(CCCNS(=O)(=O)c2cc(Cl)sc2Cl)N2C(=O)c3cccc(N4CCN([C@H](C)c5ccccc5)CC4)c3C2=O)cc1OC (stereo partly drawn)
(IV) COc1ccc([C@@H](CCCNC(=O)[C@@H]2CCCN2C)N2C(=O)c3cccc(N4CCN([C@H](C)c5ccccc5)CC4)c3C2=O)cc1OC
-- ask Sort by pIC50, descending. Would you mind listing the labels in the order requested?
-- reply II, IV, I, III

---

Target: rat GPR14 (U-II receptor) (Rattus norvegicus, UniProt P49684)
Construct: expressed in transfected cells
Sequence (P49684 1-386): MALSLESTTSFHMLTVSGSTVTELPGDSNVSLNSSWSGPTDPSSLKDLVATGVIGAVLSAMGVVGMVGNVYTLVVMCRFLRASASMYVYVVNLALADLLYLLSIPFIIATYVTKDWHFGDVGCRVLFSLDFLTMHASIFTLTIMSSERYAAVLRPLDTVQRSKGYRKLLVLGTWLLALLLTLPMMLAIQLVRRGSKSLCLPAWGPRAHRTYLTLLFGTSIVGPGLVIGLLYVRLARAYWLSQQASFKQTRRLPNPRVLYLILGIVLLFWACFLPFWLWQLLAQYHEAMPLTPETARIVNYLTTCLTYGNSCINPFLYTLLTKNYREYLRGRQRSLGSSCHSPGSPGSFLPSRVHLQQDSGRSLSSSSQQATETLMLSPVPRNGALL
Test: Rat UII Calcium Mobilization FLIPR Assay
Format: cell-based
Details: CHO, 5 min, 50 μM compound; agonist-induced Ca2+ mobilization (FLIPR), CHO cells with rat UII receptor; read-out: % I @ 50
propertyName: inhibition at 50 µM (%)

// worked examples, inhibition at 50 µM included
compound: COc1ccc([C@@H](C)N2C(=O)c3cccc(N4CCN([C@H](C)c5ccccc5)CC4)c3C2=O)cc1OC
inhibition at 50 µM, %: 100

compound: COc1ccc(CN2C(=O)c3cccc(NCCNCc4ccccc4)c3C2=O)cc1OC
inhibition at 50 µM, %: 78

(a) CCOc1cc(CN2C(=O)c3cccc(N4CCN([C@H](C)c5ccccc5)CC4)c3C2=O)ccc1OC
(b) COc1ccc(CN2C(=O)c3cccc(N4CCN(C5CCc6ccccc65)CC4)c3C2=O)cc1OC (stereo not shown)
-- ask Given the listed items, does a or b have the lesser reported inhibition at 50 µM? Returns: label corresponding to the selected item.
-- reply b
